tested on: NCI-H23 lung; experiment: NCI tumour cell line growth inhibition, 48 h
Listing of entries alongside the reported TGI.
parameter: TGI (µM)

INSERT INTO results (molecule, resultcomparator, val) VALUES
  ('CC(C)CCN1c2nc(Nc3cc(F)c(O)c(F)c3)ncc2N(C)C(=O)C1C (stereo unspecified)', '=', 67.8),
  ('COc1cc(/C=C2\C[C@H]3[C@@H]4CCc5cc(O)ccc5[C@H]4CC[C@]3(C)C2=O)cc(OC)c1OC', '=', 28.5),
  ('CO/N=C/c1cc(OC)c(OC)c(OC)c1', '>', 100),
  ('COc1ccc(N2C(=O)CC(C3CC(C(C)(C)C)CCC3=O)C2=O)cc1 (stereo unspecified)', '>', 100),
  ('Cc1cc(N)c(C)c2c1[nH]c1ccc(O)cc12', '>', 100),
  ('CN(C)CCCNC(=O)c1cc2[nH]c3c(cnc4ccc([N+](=O)[O-])cc43)c(=O)c2n1C', '=', 44.1);

---

Listing of entries alongside the reported TGI.
tested on: A549 NSCLC; assay: NCI tumour cell line growth inhibition, 48 h
parameter: TGI

INSERT INTO assay_data (molecule, val) VALUES
  ('O=C1/C(=C/c2ccc(Br)cc2)COc2ccc(O)c(O)c21', '6.77 µM'),
  ('COC1(OC)CC2C(=O)N(Cc3ccccc3)C1C(S(=O)(=O)c1ccccc1)C2S(=O)(=O)c1ccccc1 (stereo unspecified)', '75 µM'),
  ('COC(=O)CCC1=CCC2(SC)C(=O)Nc3cccc1c32 (stereo unspecified)', '> 100 µM'),
  ('CCOC(=O)CCCn1c(SC)nc2[nH]cc(-c3ccccc3)c2c1=O', '36.2 µM'),
  ('Nc1ccc2c(c1)N(C(=O)c1cc3cc(NC(=O)c4cc5ccccc5o4)ccc3[nH]1)CC2CCl (stereo unspecified)', '> 34.1 µM'),
  ('C=C1C(=O)C[C@H]2C(=C)C(=O)O[C@@H]2C2C1CC[C@@]2(C)O (stereo partly specified)', '> 100 µM'),
  ('C=C1CC[C@@H]2[C@](C)(COC(C)=O)[C@H](OC(C)=O)CC[C@@]2(C)[C@@H]1CC(Sc1ccccc1)C1=CCOC1=O (stereo partly specified)', '7.77 µM'),
  ('COc1cc(C#CC(=O)OC/C=C/c2ccc3c(c2)OCO3)cc(OC)c1OC', '> 100 µM'),
  ('COc1ccc(C(=O)C(c2ccc(OC)cc2)C2(O)C(=O)Nc3ccc([N+](=O)[O-])cc32)cc1 (stereo unspecified)', '> 100 µM'),
  ('CC1=CC(C)C/C=C/C2C3OC3(C)C(C)C3C(Cc4c[nH]c5ccccc45)NC(=O)C23C(=O)C=CC(=O)C1O (stereo unspecified)', '26.6 µM'),
  ('CC(C)=CCNc1ncnc2c1ncn2C1OC(CO)C(O)C1O (stereo unspecified)', '299 µM'),
  ('CCCC[C@@H]1CCN2C[C@@H](O)[C@@H](O)[C@@H]2[C@H]1O', '> 100 µM'),
  ('O=[N+]([O-])c1ccc(C2=Nn3cnnc3SC2)o1', '56.7 µM'),
  ('CN(C(=O)C1=CCC2(CC1)OCCO2)c1ccccc1OS(=O)(=O)C(F)(F)F', '> 100 µM'),
  ('CCCCc1c(N(C)C)c(OC(C)=O)c(-c2cn(C)c3ccccc23)oc1=O', '> 100 µM'),
  ('C=C1C(=O)O[C@@H]2C[C@@H]1CC/C(C)=C/CC/C(C)=C/CC[C@@]2(C)O', '41.2 µM'),
  ('NC(=Nc1c([N+](=O)[O-])cnc2ccccc12)N1CCOCC1', '> 100 µM'),
  ('Cc1ccc(Cc2c(=O)[nH]nc3ccccc23)cc1', '> 100 µM'),
  ('O=C(NC(Cc1c[nH]c2ccccc12)C(=O)Nc1ccc(Br)cc1)OCc1ccccc1 (stereo unspecified)', '> 100 µM'),
  ('CN(CC(=O)O)c1ncc2c(n1)-c1ccccc1SC2', '> 100 µM'),
  ('O=C(Nc1ccc(Cl)cc1F)c1ccccc1O', '> 100 µM');

---

tested on: UACC-62 melanoma; assay: NCI tumour cell line growth inhibition, 48 h
parameter: TGI

INSERT INTO results (compound, val) VALUES
  ('COc1cc(N(CCC#N)CCC#N)ccc1/C(N=Nc1ccc([N+](=O)[O-])cc1)=N/NC(=O)c1cc(Br)ccc1O', '> 150 µg/mL'),
  ('Cn1c2ccccc2c2c3c(c4c5cc(Br)ccc5n(C)c4c21)C(=O)N(O)C3=O', '> 100 µM'),
  ('Cc1c([N+](=O)[O-])ccc2c(NCCCN(C)C)ccnc12', '39.4 µM'),
  ('CC(C)(C)NC(NC(C)(C)C)=C(/C=C(/Cl)[N+](=O)[O-])[N+](=O)[O-]', '> 100 µM'),
  ('C1C2CC3CC1CC(Nc1nc(NC45CC6CC(CC(C6)C4)C5)nc(NC45CC6CC(CC(C6)C4)C5)n1)(C2)C3', '> 100 µM'),
  ('c1nc(OCC2CCCCC2)c2[nH]cnc2n1', '> 100 µM'),
  ('COc1ccc(C(=O)C(c2ccc(OC)cc2)C2(O)C(=O)Nc3ccc([N+](=O)[O-])cc32)cc1 (stereo unspecified)', '> 100 µM'),
  ('COc1ccc(CN2C(=O)/C(=C\C(=O)c3ccc(OCCN4CCCCC4)cc3)c3ccccc32)cc1', '3.13 µM'),
  ('CCCCS(=O)CCC(N)P(=O)(O)O (stereo unspecified)', '> 100 µM'),
  ('CCOc1ccccc1C=C1c2ccccc2C(=O)c2ccccc21', '> 100 µM'),
  ('CC(=O)Nc1ccc(C(=O)NN2C(=O)CSC2c2ccc([N+](=O)[O-])cc2)cc1 (stereo unspecified)', '> 100 µM');

---

system: SNB-75 CNS; assay: NCI tumour cell line growth inhibition, 48 h
Listing of entries alongside the reported TGI.
parameter: TGI

INSERT INTO measurements (molecule, parameter, val) VALUES
  ('CC(C)c1ccccc1NC(=O)CCc1n[nH]c(=S)o1', 'TGI', '> 100 µM'),
  ('Cn1c2c(c3ccccc31)C1CCCCCCC1C1C(=O)OC(=O)C21 (stereo not drawn)', 'TGI', '> 100 µM'),
  ('S=C1NC2(CCCCCC2)NN1c1ccccc1', 'TGI', '> 100 µM');

---

tested on: SK-MEL-5 melanoma; assay: NCI tumour cell line growth inhibition, 48 h
Listing of entries alongside the reported TGI.
parameter: TGI

INSERT INTO measurements (compound, testedon, val) VALUES
  ('[N-]=[N+]=NC12CC3C4CC5CC3C(C1)C(C5)C4C2', 'SK-MEL-5 melanoma', '> 100 µM'),
  ('CS(=O)(=O)Nc1ccc2c(c1)oc(=O)c1ccccc12', 'SK-MEL-5 melanoma', '> 100 µM'),
  ('CC(=O)O[C@H]1C[C@H]2[C@@H](OC(C)=O)/C=C3\C[C@](C)(C(=O)[C@H](O)C(=C1C)C2(C)C)[C@@H](O)C[C@@H]3OC(=O)[C@H](O)[C@H](c1ccccc1)N(C)C', 'SK-MEL-5 melanoma', '> 100 µM');

---

test system: SK-MEL-28 melanoma; experiment: NCI tumour cell line growth inhibition, 48 h
parameter: TGI

INSERT INTO assay_data (compound, val) VALUES
  ('CCCCC1=NNC(=O)C1', '> 100 µM'),
  ('CN(C)N=Nc1ccc(NC=O)cc1', '> 100 µM'),
  ('S=C1NC2(CCCCCC2)NN1c1ccccc1', '> 100 µM'),
  ('COc1cc(/C=C2\C[C@H]3[C@@H]4CCc5cc(O)ccc5[C@H]4CC[C@]3(C)C2=O)cc(OC)c1OC', '24.8 µM'),
  ('CC(C)CC1C(=O)NCCC(NC(=O)C(Cc2ccc(OC(C)(C)C)cc2)NC(=O)OC(C)(C)C)C(=O)NC(Cc2ccccc2)C(=O)NC(Cc2ccccc2)NC1=O (stereo not drawn)', '42.4 µM'),
  ('CCCC(=O)n1[nH]c(=O)n(-c2ccc(Cl)cc2)c1=O', '> 100 µM'),
  ('OCCCCCCCCCCCOc1ccc(C2OCC3(CO2)COC(c2ccc(OCCCCCCCCCCCO)cc2)OC3)cc1 (stereo not drawn)', '> 50 µM'),
  ('COc1ccc(N2C(=O)CC(C3CC(C(C)(C)C)CCC3=O)C2=O)cc1 (stereo not drawn)', '> 100 µM'),
  ('CCCN=C(N)NC#N', '> 100 µM'),
  ('COc1cc([C@H]2Oc3cc(O)c4c(=O)cc(-c5ccccc5)oc4c3O[C@@H]2CO)ccc1O', '> 100 µM'),
  ('O=C(Cc1ccc(/C=C/C(=O)c2ncc[nH]2)cc1)Nc1cc(F)c(F)c(F)c1', '8.09 µM'),
  ('C[N+](CCCl)(CCCl)Cc1cccc2cccc([N+](=O)[O-])c12', '> 100 µM'),
  ('CCCCC(C(=O)C(=O)NC1C2CC3CC(C2)CC1C3)C(=O)C(C)C (stereo not drawn)', '> 100 µM'),
  ('O=C(Nc1ccc(Cl)cc1F)c1ccccc1O', '21.6 µM'),
  ('CCCCCCNC(=O)c1cc(NCc2cc(O)ccc2O)ccc1O', '25.4 µM'),
  ('CCOC(=O)CCCn1c(SC)nc2[nH]cc(-c3ccccc3)c2c1=O', '37.1 µM'),
  ('O=C(Nc1nc2ccc(C(F)(F)F)cc2s1)c1cc(Cl)ccc1O', '18 µM'),
  ('CN(Cc1cnc2nc(N)nc(N)c2n1)c1ccc(C(=O)NC(CCC(=O)NCCC(P(=O)(O)O)P(=O)(O)O)C(=O)O)cc1 (stereo not drawn)', '> 100 µM');
